assay: Plasma concentration after single oral administration to rats (LC-MS); format: in vivo; conditions: male, Crl:CD <SD>, rat, plasma, po, 100 mg/kg, oral 100 mg/kg single, 4 hr, average, read-out: Plasma concentration of Compound A, Average
observable: concentration at 4 h (ng/mL)
Write the answer as a number in ng/mL, unit excluded.

Returns the measured concentration at 4 h for the input compound. Input: C[C@H]1CN(C(=O)CC#N)[C@]12CCN(c1ncnc3[nH]ccc13)C2 4140

* * *

experiment: Plasma concentration after single oral administration to rats (LC-MS); type: in vivo; settings: male, Crl:CD <SD>, rat, plasma, po, 100 mg/kg, oral 100 mg/kg single, 0.5 hr, individual animal, read-out: Plasma concentration of Compound A
observable: concentration at 0.5 h (ng/mL)
Write the answer as a number in ng/mL, unit excluded.

# lookup: concentration at 0.5 h of C[C@H]1CN(C(=O)CC#N)[C@]12CCN(c1ncnc3[nH]ccc13)C2 5810

* * *

experiment: Plasma concentration after single oral administration to rats (LC-MS); assay type: in vivo; conditions: male, Crl:CD <SD>, rat, plasma, po, 100 mg/kg, oral 100 mg/kg single, 0.5 hr, average, read-out: Plasma concentration of Compound A, Average
observable: concentration at 0.5 h (ng/mL)
Please state the figure in ng/mL; there is no need to write the unit.

Name the recorded concentration at 0.5 h for C[C@H]1CN(C(=O)CC#N)[C@]12CCN(c1ncnc3[nH]ccc13)C2 [Compound A] . 6320

* * *

experiment: Neural retina concentration after single oral administration to rats (LC-MS); format: in vivo, rat; settings: male, Crl:CD <SD>, rat, neural retina, po, 100 mg/kg, rat, oral 100 mg/kg single, 4 hr, individual eye; read-out: Neural retina concentration of Compound A
observable: concentration at 4 h (ng/mL)
The answer is to be given in ng/mL; state only the numeric part.

Recorded concentration at 4 h for C[C@H]1CN(C(=O)CC#N)[C@]12CCN(c1ncnc3[nH]ccc13)C2 , please? 2300

* * *

test: Neural retina concentration after single oral administration to rats (LC-MS); format: in vivo, rat; details: male, Crl:CD <SD>, rat, neural retina, po, 100 mg/kg, rat, oral 100 mg/kg single, 2 hr, individual eye; read-out: Neural retina concentration of Compound A
observable: concentration at 2 h (ng/mL)
Please respond with the number in ng/mL and leave the unit unwritten.

Would you mind telling me what concentration at 2 h value was observed for C[C@H]1CN(C(=O)CC#N)[C@]12CCN(c1ncnc3[nH]ccc13)C2 [Compound A] ? 2660

* * *

assay: Neural retina concentration after single oral administration to rats (LC-MS); format: in vivo, rat; conditions: male, Crl:CD <SD>, rat, neural retina, po, 100 mg/kg, rat, oral 100 mg/kg single, 6 hr, average; read-out: Neural retina concentration of Compound A, Average
observable: concentration at 6 h
A complete answer gives the number followed by the unit.

Need concentration at 6 h of C[C@H]1CN(C(=O)CC#N)[C@]12CCN(c1ncnc3[nH]ccc13)C2 , thanks. 1920 ng/mL

* * *

assay: Plasma concentration after single oral administration to rats (LC-MS); type: in vivo; details: male, Crl:CD <SD>, rat, plasma, po, 100 mg/kg, oral 100 mg/kg single, 1 hr, individual animal, read-out: Plasma concentration of Compound A
observable: concentration at 1 h (ng/mL)
All answers are understood in ng/mL, so give the number only.

# concentration at 1 h lookup, item C[C@H]1CN(C(=O)CC#N)[C@]12CCN(c1ncnc3[nH]ccc13)C2 7950

* * *

assay: Neural retina concentration after intravitreal injection to rats (LC-MS); type: in vivo; details: male, Crl:CD <SD>, rat, neural retina, other: intravitreal injection, 10 μg/eye, intravitreal 10 μg/eye, 1 hr, average, read-out: Neural retina concentration of Compound A, Average
observable: concentration at 1 h (ng/mL)
Record the value in ng/mL, omitting the unit from your answer.

For the molecule C[C@H]1CN(C(=O)CC#N)[C@]12CCN(c1ncnc3[nH]ccc13)C2 [Compound A] , what concentration at 1 h is on record? 45000

* * *

assay: Neural retina concentration after intravitreal injection to rats (LC-MS); assay type: in vivo; conditions: male, Crl:CD <SD>, rat, neural retina, other: intravitreal injection, 10 μg/eye, intravitreal 10 μg/eye, 1 hr, individual eye, read-out: Neural retina concentration of Compound A
observable: concentration at 1 h (ng/mL)
Supply the numeric figure in ng/mL, leaving out any unit text.

Can you share its concentration at 1 h? I mean this molecule: C[C@H]1CN(C(=O)CC#N)[C@]12CCN(c1ncnc3[nH]ccc13)C2 39500

* * *

assay: Plasma concentration after single oral administration to rats (LC-MS); assay type: in vivo; details: male, Crl:CD <SD>, rat, plasma, po, 100 mg/kg, oral 100 mg/kg single, 1 hr, average, read-out: Plasma concentration of Compound A, Average
observable: concentration at 1 h (ng/mL)
Supply the numeric figure in ng/mL, leaving out any unit text.

Which concentration at 1 h is listed for C[C@H]1CN(C(=O)CC#N)[C@]12CCN(c1ncnc3[nH]ccc13)C2 [Compound A] ? 8260

* * *

experiment: Plasma concentration after single oral administration to rats (LC-MS); format: in vivo; details: male, Crl:CD <SD>, rat, plasma, po, 100 mg/kg, oral 100 mg/kg single, 2 hr, individual animal, read-out: Plasma concentration of Compound A
observable: concentration at 2 h (ng/mL)
Quick reminder: number only, in ng/mL, skip the unit.

Request the reported concentration at 2 h associated with C[C@H]1CN(C(=O)CC#N)[C@]12CCN(c1ncnc3[nH]ccc13)C2 6520
